Sourced from patent US12344595B2

- TARGET: UniProt:Q9Y5Y9
- ASSAY SUMMARY: Nav1.8 Qube automated patch-clamp assay
- CONDITION SUMMARY: Nav1.8 Qube Assay; human Nav1.8 channels stably expressed in HEK 293 cells
MEASURED PROPERTY: pIC50
Keep in mind that pIC50 stands for -log10 of concentration in molar terms.

Quick note, pIC50 for Cc1cc(Cl)nc(N2CCCC(F)(F)CC2)c1C(=O)Nc1cccc(C(N)=O)c1 landed at 7.54

Entry NS(=O)(=O)c1cccc(NC(=O)c2cc(C(F)(F)F)cnc2N2CCO[C@@H](C(F)(F)F)C2)c1 , pIC50 reported as 6.26

Kindly note the recorded pIC50 for Cc1ccc(C(=O)Nc2cccc(S(C)(=O)=O)c2)c(N2CCCC(F)(F)CC2)n1 , which is 8.04

Form field pIC50, entry CC12CCN(c3ncc(C(F)(F)F)cc3C(=O)Nc3cccc(S(N)(=O)=O)c3)CC1C2(F)F (single isomer, unassigned) [Example 128] : 7.85

Per the records, this molecule ( Cc1nc(N2CCCC(F)(F)CC2)c(C(=O)Nc2cccc(S(C)(=O)=O)c2)cc1C#N ) has pIC50 equal to 8.14

For record NS(=O)(=O)c1cccc(NC(=O)c2cc(C(F)(F)F)cnc2N2CCCCCC2)c1 the listed pIC50 is 8.02

Measured pIC50, NS(=O)(=O)c1cccc(NC(=O)c2cc(C(F)(F)F)cnc2N2CCCO[C@@H](C(F)(F)F)C2)c1 : 6.30

----------
Property: pIC50; scope: individual compounds
- TARGET: human Nav1.8 (Homo sapiens (Human))
- ASSAY SUMMARY: Nav1.8 Qube automated patch-clamp assay
- CONDITION SUMMARY: Nav1.8 Qube Assay; human Nav1.8 channels stably expressed in HEK 293 cells
pIC50 here: minus log base 10 of the concentration, concentration in moles per litre.

>>> print(df.to_string())
                                   compound  experimental_result
0  NS(=O)(=O)c1cccc(NC(=O)c2cc(C(F)(F)F)cnc2N2CC3CC(F)(F)C3C2)c1 (single isomer, unassigned) [Example 135]                 7.43
1  NS(=O)(=O)c1cccc(NC(=O)c2cc(C(F)(F)F)cnc2N2CC3CC2CC3(F)F)c1 (single isomer, unassigned) [Example 137]                 7.09
2  NS(=O)(=O)c1cccc(NC(=O)c2cc(C3COC3)cnc2N2CCCC(F)(F)CC2)c1 [Example 160]                 6.17
3  Cc1cc(Cl)nc(N2CCCC(F)(F)CC2)c1C(=O)Nc1cccc(S(C)(=O)=O)c1 [Example 8]                 8.24
4  NC(=O)c1cccc(NC(=O)c2cc(C(F)(F)F)cnc2N2CC3CCC(F)(F)C3C2)c1 (stereo not drawn) [Example 108]                 6.83

The compound identified as Cc1nc(N2CCC3(CC2)CC3)c(C(=O)Nc2cccc(C(N)=O)c2)c(C)c1Cl [Example 13] registered its pIC50 at 7.89

Field pIC50 (entry CS(=O)(=O)c1cccc(NC(=O)c2cc(Cl)cnc2N2CCCC(F)(F)CC2)c1 [Example 173] ) reads 8.11

Consider NS(=O)(=O)c1cccc(NC(=O)c2cc(C(F)(F)F)cnc2N2C[C@H]3CC[C@H]3C2)c1 [Example 134] . Its measured pIC50 is 7.60

Data point: NS(=O)(=O)c1cccc(NC(=O)c2cc(C3CCCC3)cnc2N2CCCCC2)c1 [Example 154] ; pIC50 = 5.75

Recorded result, CS(=O)(=O)c1cccc(NC(=O)c2cc(C(F)(F)F)cnc2N2CCCCCCC2)c1 [Example 95] , pIC50: 7.70

According to the records, this compound CS(=O)(=O)c1cccc(NC(=O)c2cc(C(F)(F)F)cnc2N2CCc3ccccc3C2)c1 [Example 98] displays pIC50 of 7.03

----------
# IC50 values compiled below
- TARGET: human Nav1.8 (Homo sapiens (Human), UniProt Q9Y5Y9)
- Sequence (Q9Y5Y9 whole entry): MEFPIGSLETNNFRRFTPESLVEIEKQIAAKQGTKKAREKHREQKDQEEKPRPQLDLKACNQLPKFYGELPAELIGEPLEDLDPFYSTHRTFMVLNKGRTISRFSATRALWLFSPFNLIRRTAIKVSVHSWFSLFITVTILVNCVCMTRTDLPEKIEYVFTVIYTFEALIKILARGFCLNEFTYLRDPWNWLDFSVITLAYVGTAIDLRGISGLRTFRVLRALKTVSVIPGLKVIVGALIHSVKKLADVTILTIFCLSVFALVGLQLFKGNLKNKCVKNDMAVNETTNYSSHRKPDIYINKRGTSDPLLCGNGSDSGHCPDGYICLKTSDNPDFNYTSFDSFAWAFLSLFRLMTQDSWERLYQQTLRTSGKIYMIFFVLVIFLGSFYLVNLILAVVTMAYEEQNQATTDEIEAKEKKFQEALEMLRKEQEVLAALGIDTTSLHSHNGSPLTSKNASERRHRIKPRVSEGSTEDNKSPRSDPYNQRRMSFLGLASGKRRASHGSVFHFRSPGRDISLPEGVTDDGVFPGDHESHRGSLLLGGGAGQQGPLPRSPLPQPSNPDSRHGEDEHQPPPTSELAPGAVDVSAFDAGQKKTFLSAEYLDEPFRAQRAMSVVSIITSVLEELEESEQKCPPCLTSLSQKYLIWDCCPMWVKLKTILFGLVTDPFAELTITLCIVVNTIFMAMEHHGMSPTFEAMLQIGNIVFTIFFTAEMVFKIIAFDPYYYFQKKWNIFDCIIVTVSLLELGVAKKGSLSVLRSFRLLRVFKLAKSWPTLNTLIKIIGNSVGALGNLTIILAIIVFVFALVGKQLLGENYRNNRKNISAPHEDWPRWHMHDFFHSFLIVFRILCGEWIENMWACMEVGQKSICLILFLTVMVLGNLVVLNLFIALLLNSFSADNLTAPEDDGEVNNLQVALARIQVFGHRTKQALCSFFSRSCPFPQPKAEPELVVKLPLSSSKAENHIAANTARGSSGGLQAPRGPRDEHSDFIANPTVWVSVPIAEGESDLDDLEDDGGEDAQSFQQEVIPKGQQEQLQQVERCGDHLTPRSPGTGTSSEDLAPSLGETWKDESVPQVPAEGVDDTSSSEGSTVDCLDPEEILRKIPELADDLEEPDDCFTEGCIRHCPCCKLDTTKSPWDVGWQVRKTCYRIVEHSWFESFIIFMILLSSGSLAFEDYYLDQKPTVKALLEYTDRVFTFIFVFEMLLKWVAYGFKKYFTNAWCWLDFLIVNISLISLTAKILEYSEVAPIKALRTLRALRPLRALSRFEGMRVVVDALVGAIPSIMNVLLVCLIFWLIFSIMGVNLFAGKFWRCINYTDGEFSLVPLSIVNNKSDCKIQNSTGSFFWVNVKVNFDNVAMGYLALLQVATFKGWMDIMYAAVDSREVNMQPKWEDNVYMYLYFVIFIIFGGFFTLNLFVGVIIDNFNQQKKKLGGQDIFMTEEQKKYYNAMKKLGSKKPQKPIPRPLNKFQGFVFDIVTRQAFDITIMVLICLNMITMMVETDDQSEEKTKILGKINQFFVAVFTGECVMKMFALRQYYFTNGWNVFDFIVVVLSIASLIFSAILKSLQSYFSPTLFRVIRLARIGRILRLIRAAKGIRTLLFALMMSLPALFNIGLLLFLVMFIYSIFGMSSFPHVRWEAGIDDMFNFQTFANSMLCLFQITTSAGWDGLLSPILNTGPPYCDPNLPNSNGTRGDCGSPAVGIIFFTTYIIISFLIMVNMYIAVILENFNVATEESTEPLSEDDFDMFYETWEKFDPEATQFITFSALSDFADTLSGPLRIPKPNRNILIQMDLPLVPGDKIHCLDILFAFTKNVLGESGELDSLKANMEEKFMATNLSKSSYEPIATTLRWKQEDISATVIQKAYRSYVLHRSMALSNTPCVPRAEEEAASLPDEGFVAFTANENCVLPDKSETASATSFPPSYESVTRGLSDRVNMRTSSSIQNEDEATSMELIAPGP
- ASSAY SUMMARY: Nav1.8 Qube automated patch-clamp assay
- CONDITION SUMMARY: Nav1.8 Qube Assay; human Nav1.8 channels stably expressed in HEK 293 cells
Please state the figure in nM; there is no need to write the unit.

Please review the following examples before continuing.
>>> print(df.to_string())
                                   molecule                                    target  experimental_result
0  Cc1nc(N2CCCCC2)c(C(=O)Nc2cccc(S(C)(=O)=O)c2)c(C)c1Cl  human Nav1.8 (Homo sapiens (Human), UniProt Q9Y5Y9)                   54
1  Cc1cc(C(=O)Nc2cccc(C(N)=O)c2)c(N2CCCCCC2)nc1C  human Nav1.8 (Homo sapiens (Human), UniProt Q9Y5Y9)                  106
2  Cc1ccc(C(=O)Nc2cccc(C(N)=O)c2)c(N2CCCC(F)(F)CC2)n1  human Nav1.8 (Homo sapiens (Human), UniProt Q9Y5Y9)                   16
3  NS(=O)(=O)c1cccc(NC(=O)c2cc(C(F)(F)F)cnc2N2CCCC3(C2)CC3(F)F)c1 (single isomer, unassigned) [Example 126]  human Nav1.8 (Homo sapiens (Human), UniProt Q9Y5Y9)                   14
4  C[Si](C)(C)c1cnc(N2CCC3(CC2)COC3)c(C(=O)Nc2cccc(S(N)(=O)=O)c2)c1  human Nav1.8 (Homo sapiens (Human), UniProt Q9Y5Y9)                 7880
5  NS(=O)(=O)c1cccc(NC(=O)c2cc(C(F)(F)F)cnc2N2CCC(C(F)F)CC2)c1  human Nav1.8 (Homo sapiens (Human), UniProt Q9Y5Y9)                  239

Please fill in: IC50 reported for CC1CN(c2ncc(C(F)(F)F)cc2C(=O)Nc2cccc(S(N)(=O)=O)c2)CC(C)O1 (single isomer, unassigned) [Example 149] = 351

The recorded IC50 for NS(=O)(=O)c1cccc(NC(=O)c2cc(C(F)(F)F)cnc2N2CC3CCC(C3)C2)c1 (racemic) is 12

----------
Each entry below carries its recorded IC50.
- TARGET: UniProtKB Q9Y5Y9
- ASSAY SUMMARY: Nav1.8 Qube automated patch-clamp assay
- Format: cell-based
- CONDITION SUMMARY: Nav1.8 Qube Assay; human Nav1.8 channels stably expressed in HEK 293 cells
Report the value in nM with no unit label.

Example entries and their recorded answers appear below.
In [3]: df
Out[3]:
                                   compound  measured_property  experimental_result
0  Cc1cc(Cl)c(C(=O)Nc2cccc(S(N)(=O)=O)c2)c(N2CCCCCC2)n1 [Example 158]               IC50                  910
1  NC(=O)c1cccc(NC(=O)c2cc(Cl)cnc2N2CCCC(F)(F)CC2)c1 [Example 15]               IC50                   19
2  COc1ccc(C(=O)Nc2cccc(C(N)=O)c2)c(N2CCCC(F)(F)CC2)n1 [Example 18]               IC50                   52

Next compound, please.
Documented IC50 of NC(=O)c1cccc(NC(=O)c2cc(C(F)(F)F)cnc2N2CCCC(F)(F)C2)c1 [Example 110] : 3770

----------
- TARGET: human Nav1.8 (Homo sapiens (Human), UniProt Q9Y5Y9)
- ASSAY SUMMARY: Nav1.8 Qube automated patch-clamp assay
- CONDITION SUMMARY: Nav1.8 Qube Assay; human Nav1.8 channels stably expressed in HEK 293 cells
MEASURED PROPERTY: log10 of IC50 (log10 of the value in nM)
Scale type: logarithmic (base 10). Underlying IC50 unit: nM.

The cases that follow already have their log10 of IC50 on record.
>>> print(df.to_string())
                                   compound  experimental_result
0  CC(C)S(=O)(=O)c1cccc(NC(=O)c2cc(C(F)(F)F)cnc2N2CCCCCC2)c1 [Example 117]                 2.89
1  Cc1ccnc(N2CCCCCC2)c1C(=O)Nc1cccc(S(N)(=O)=O)c1 [Example 175]                 2.46

The recorded log10 of IC50 with human Nav1.8 (Homo sapiens (Human), UniProt Q9Y5Y9) for NS(=O)(=O)c1cccc(NC(=O)c2cc(C(F)(F)F)cnc2N2CCNC(C(F)(F)F)C2)c1 (stereo not shown) [Example 143] was 3.34

Field log10 of IC50 (system: human Nav1.8 (Homo sapiens (Human), UniProt Q9Y5Y9)) for entry NS(=O)(=O)c1cccc(NC(=O)c2cc(C(F)(F)F)cnc2N2CC3CCC(C2)O3)c1 [Example 52] = 2.48

The value of log10 of IC50 recorded for Cc1nc(N2CCCC(F)(F)CC2)c(C(=O)N(C)c2cccc(S(N)(=O)=O)c2)c(C)c1Cl [Example 179] when tested on human Nav1.8 (Homo sapiens (Human), UniProt Q9Y5Y9) reads 2.94
